Please respond with reported kon for every item in the list.
# tested_on: T1, human Proprotein Convertase Subtilisin-like/Kexin type 9 (human, UniProt Q8NBP7 31-692, limits assumed)
# T1 construct: Biotinylated in the ELISAs; unlabelled analyte in BLI and SPR; also called human PCSK9; PCSK9
# test_name: BLI (Octet QK), biotinylated antibody on streptavidin sensors, human PCSK9 in solution, 1:1 fit
Give bare numbers, in M⁻¹ s⁻¹.

binder="Ab6 (antibody, human IgG1, kappa, N297A, V domains shown, also called antibody Ab6) VH: QEQLEESGGDLVKPEGSLTLTCTASGFSFSSNYWICWVRQAPGKGLEWIGCIRDGGGTYYASWAKGRLTISMTSSTTVTLQLNSLTAADTATYFCASDINDGWLGQFNLWGPGTLVTVSS VL: DIVMTQTPASVEVAVGGTVTIKCQASQSISAYLAWYQQKPGQPPKLLIYRAYTLASGVPSRFKGSGSGTQFTLTISDLECADAATYYCQSYYSVTTNTYGNTFGGGTEVVVKR" result_number=75300

Turning to the following binder.
Report kon, nothing else, for this binder: Ab16 (antibody, human IgG1, kappa, N297A, V domains shown, also called antibody Ab16) VH: QEQLVESGGGLVQPEGSLTLTCTASGFSFSSDYWICWVRQAPGKGLEWIGCIRDGGGSYYANWAKGRLTISMTSSTTVGLKMTSLTAADTATYFCASDINDGWLGQFNLWGPGTLVTVSS VL: DIVMTQTPASVEAAVGGTVTIKCQASQSISSYLAWYQQKPGQPPKLLIYRASTLASGVPSRFSGSGSGTEFTLTISDLECADAATYYCQSYYSVTTVTYGNTFGGGTEVVVKR 77500
